biological target: S. pyogenes SKKanGAS, kanamycin survival, BacTiterGlo, 6 h; assay: S. pyogenes SKKanGAS kanamycin growth inhibitors – SKKanGAS strain, luminescence, dose confirmation, streptokinase promoter inhibitor project, dose response (AID 1902);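 active = EC50 no more than a set limit of log units above the highest dose; inactive = the rest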;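 also: lower survival reflects blocked streptokinase promoter driving kanamycin resistance gene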
Bench note: report the call from active, inactive

[
  {
    "molecule": "CCOc1ccc2nc(NC(=O)CN3CCC(n4nnc5cc(C(F)(F)F)ccc54)CC3)sc2c1",
    "assigned.category": "active"
  },
  {
    "molecule": "CCCn1c(NC(=O)c2ccccc2Br)nc2ccccc21",
    "assigned.category": "active"
  },
  {
    "molecule": "CC1CCN(c2ccccc2NC(=O)c2cc3ccccc3o2)CC1",
    "assigned.category": "active"
  },
  {
    "molecule": "CCc1ccc(-c2cc(C(=O)N/N=C/c3c[nH]c4ccccc34)[nH]n2)cc1",
    "assigned.category": "active"
  },
  {
    "molecule": "NC(=O)NC(=O)CSc1nc2cc([N+](=O)[O-])ccc2n1-c1cccc(C(F)(F)F)c1",
    "assigned.category": "active"
  }
]

Hi team, can someone confirm the assay call for COc1ccc(Br)cc1[C@H]1[C@@H]2C=CCC[C@@]2(C)C(=O)N1Cc1ccccc1 ? active

Would you mind telling me which call this test gave Cc1ccccc1Nc1nc(N)nc(CN(C)Cc2ccccc2Cl)n1 ? active

Hey, what did the test say about COC(=O)C1CN(C#N)N(c2ccc(Cl)cc2)C12c1ccccc1-c1ccccc12 (stereo unspecified) ? active

Entry CCCCc1ccc(NC(=S)NCCc2ccc(F)cc2)cc1 : call = ? active

Which outcome did this test record for the molecule CC(Oc1ccc(Cl)cc1Cl)c1nc(-c2ccc(NC(=O)c3ccco3)cc2)no1 (stereo unspecified) ? active

Answer briefly: the call reported for COc1ccc(-n2c(=S)[nH]c3cc(C(=O)Nc4ccc(C)c(F)c4)ccc3c2=O)c(OC)c1 in this assay. active

What is the recorded call for this molecule in the test? Cc1cc(C(F)(F)F)c(C#N)c(SCC(=O)Nc2nc3cc(Br)ccc3s2)n1 active

Please indicate how the test categorized COc1ccc(-n2c(SCC(=O)Nc3ccccc3)nc(O)cc2=O)cc1 . active

What was the test verdict on Cc1ccc(C(=O)NNC(=S)NC(=O)c2ccco2)cc1 ? active

What did the test return for CCOc1ccc(C(=O)NC(=S)Nc2ccc(N3CCOCC3)c(Cl)c2)cc1[N+](=O)[O-] ? active

How was CCCCC(=O)NC(c1ccco1)c1cc(Cl)c2cccnc2c1O (stereo unspecified) classified in this test? active

# fetch the recorded call for Fc1ccc2nc(Nc3nc4cc5c(cc4s3)OCO5)sc2c1 here active

Call for entry O=[N+]([O-])c1ccc(N2N=C(c3ccccc3)CC2c2ccccc2O)cc1 (stereo unspecified) : active

---

molecular target: S. pyogenes SKKanGAS, kanamycin survival, BacTiterGlo, 6 h; assay: S. pyogenes SKKanGAS kanamycin growth inhibitors – SKKanGAS strain, luminescence, dose confirmation, streptokinase promoter inhibitor project, dose response (AID 1902)
Listed below: pEC50 values for each entry.
Give only the number. pEC50 is defined as minus log10 of concentration in molar units.

[
  {
    "compound": "CCC(C)(C)c1ccc(OCCCC[n+]2cccc(C)c2)c(C(C)(C)CC)c1",
    "pEC50": 5.11
  },
  {
    "compound": "COc1cccc2sc(Nc3nnc(-c4ccc(F)cc4)o3)nc12",
    "pEC50": 6.26
  },
  {
    "compound": "Cc1cccc(NC(=O)c2sc(Cl)nc2-c2ccccc2)c1",
    "pEC50": 4.95
  }
]

The recorded pEC50 for S=c1[nH]nc(-c2cccs2)n1/N=C/c1cn(-c2ccccc2)nc1-c1ccccc1 is 5.11

The value of pEC50 measured for the compound Cc1[nH]n(-c2ccccc2)c(=O)c1/C=N/NC(=O)c1cccc(F)c1 turned out to be 5.46

Entry under test: Fc1cc(F)c(C2SCCN2C(=S)Nc2cccc(C(F)(F)F)c2)c(F)c1 (stereo not given) . Its pEC50 was 5.08

response.value for CCOC(=O)C1=C(c2ccc(OC)cc2)C(=O)c2ccccc2C1=O (field: pEC50) = 5.75

For this compound ( C=C(C)C1Cc2c(C)nn(-c3nc(C)cc(C)n3)c2C1 (stereo not given) ), measured pEC50 is 6.16

Record summary for Cc1[nH]n2c(=O)cc(-c3ccc([N+](=O)[O-])cc3)nc2c1-c1ccccc1 : reported pEC50 = 6.50

Please fill in: pEC50 reported for CCCCCCn1c(=O)c(C(=O)Nc2ncccc2C)c(O)c2ccccc21 = 6.29

---

molecular target: S. pyogenes SKKanGAS, kanamycin survival, BacTiterGlo, 6 h; experiment: S. pyogenes SKKanGAS kanamycin growth inhibitors – SKKanGAS strain, luminescence, dose confirmation, streptokinase promoter inhibitor project, dose response (AID 1902);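 also: lower survival reflects blocked streptokinase promoter driving kanamycin resistance gene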
The source made the active and inactive calls.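 Rule for the calls: active = EC50 no more than a set limit of log units above the highest dose; inactive = the rest.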
Could you please pick one outcome from this set? active, inactive

These solved cases illustrate the format of a correct answer.
[
  {
    "molecule": "CCCC(=O)NC(c1ccc(C)cc1)c1ccc2cccnc2c1O (stereo unspecified)",
    "assigned.category": "active"
  },
  {
    "molecule": "Cc1cc(C(F)F)nn1CC(=O)NC1C(=O)N2C(C(=O)O)=C(CSc3nnnn3C)CSC12 (stereo unspecified)",
    "assigned.category": "active"
  },
  {
    "molecule": "CCN(CC)S(=O)(=O)c1cccc(C(=O)Nc2nc3cc4c(cc3s2)OCCO4)c1",
    "assigned.category": "active"
  }
]

Any idea what this test logged for O=[N+]([O-])c1ccc(NCc2ccc(Cl)cc2)c2ccncc12 ? active

Dear colleague, could you share the recorded outcome for CS(=O)(=O)c1ccc2nc(NC(=O)c3ccc(NS(=O)(=O)c4cccc([N+](=O)[O-])c4)cc3)sc2c1 when you have a moment? active

Identify the outcome logged in this assay for the molecule shown: CCCCCNC(=O)c1ccc2c(=O)[nH]c3c(C(=O)NCC4CCCO4)sc(=S)n3c2c1 (stereo unspecified) active

Any idea what this test logged for COc1ccccc1-c1nnc(NC(=O)c2ccc(S(=O)(=O)N(C)CC3CCCO3)cc2)o1 (stereo unspecified) ? active

Tell me the assay call for Cc1coc2c1C(=O)C(=O)c1c-2ccc2c(C)cccc12 please. active

Dear all, I need the recorded test outcome for CCOC(=O)N1CCC(N2Cc3cccc(C(=O)Nc4ccc(F)cc4)c3C2=O)CC1 , thank you. active

What outcome does the record of this test show for Fc1ccc(N2CCN(Cc3cn[nH]c3-c3ccccc3)CC2)cc1 ? inactive

Called result for Oc1c(C(Nc2nc3ccccc3s2)c2ccco2)ccc2cccnc12 (stereo unspecified) active

Record request — test call for O=C(Nc1nnc(-c2ccccc2Cl)o1)c1ccc(S(=O)(=O)N2CCCCCC2)cc1 active

Which outcome was assigned to N#Cc1c(-c2ccccc2)nc(SCc2cccc(C(F)(F)F)c2)[nH]c1=O in this test? active

For FC(F)(F)Oc1ccc(NC(=S)Nc2ccc(OC(F)(F)F)cc2)cc1 , what call appears in the results of this test? active

---

biological target: S. pyogenes SKKanGAS, kanamycin survival, BacTiterGlo, 6 h; experiment: S. pyogenes SKKanGAS kanamycin growth inhibitors – SKKanGAS strain, luminescence, dose confirmation, streptokinase promoter inhibitor project, dose response (AID 1902);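 also: lower survival reflects blocked streptokinase promoter driving kanamycin resistance gene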
Attribute: pEC50
Keep it numeric: pEC50 is minus log10 of the concentration in mol/L.

[
  {
    "compound": "CCC(=O)Nc1ccc(Nc2nc(C)c([N+](=O)[O-])c(Nc3ccc(NC(=O)CC)cc3)n2)cc1",
    "tested.system": "S. pyogenes SKKanGAS, kanamycin survival, BacTiterGlo, 6 h",
    "observed": 5.81
  },
  {
    "compound": "Cc1ccc(O)c(C2=NNC(c3ccc(Cl)cc3)C2)c1 (stereo not given)",
    "tested.system": "S. pyogenes SKKanGAS, kanamycin survival, BacTiterGlo, 6 h",
    "observed": 5.13
  },
  {
    "compound": "CCC1CCCCN1S(=O)(=O)c1ccc(C(=O)Nc2nnc(C3=COCCO3)o2)cc1 (stereo not given)",
    "tested.system": "S. pyogenes SKKanGAS, kanamycin survival, BacTiterGlo, 6 h",
    "observed": 5.24
  },
  {
    "compound": "COc1ccc(Cn2c(SCc3cc(C)ccc3C)nc3cc(OC)c(OC)cc3c2=N)cc1",
    "tested.system": "S. pyogenes SKKanGAS, kanamycin survival, BacTiterGlo, 6 h",
    "observed": 5.56
  }
]

Reported pEC50 ( CCc1nc2c3cnn(-c4cc(Cl)ccc4C)c3ncn2n1 ) = 4.89

pEC50 in this record for Cc1nc(Nc2cnc(/C=C/c3cc(C(=O)Nc4cccc(C(F)(F)F)c4)ccc3C)cn2)cc(N2CCNCC2)n1 : 5.20

---

target: S. pyogenes SKKanGAS, kanamycin survival, BacTiterGlo, 6 h; assay: S. pyogenes SKKanGAS kanamycin growth inhibitors – SKKanGAS strain, luminescence, dose confirmation, streptokinase promoter inhibitor project, dose response (AID 1902);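 also: lower survival reflects blocked streptokinase promoter driving kanamycin resistance gene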
Activity calls are given as the source filed them.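 The calls were made as follows: active = EC50 no more than a set limit of log units above the highest dose; inactive = the rest.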
Pick one and only one: 1 = active, 0 = inactive

Would you please look over these solved cases?
[
  {
    "compound": "COc1ccc(-c2sc3ccccc3c2C#CC2(O)CCCCC2)cc1",
    "tested.system": "S. pyogenes SKKanGAS, kanamycin survival, BacTiterGlo, 6 h",
    "assigned.category": 1
  },
  {
    "compound": "NC(N)=N/N=C/c1ccc(OCc2ccccc2)c(OCc2ccccc2)c1",
    "tested.system": "S. pyogenes SKKanGAS, kanamycin survival, BacTiterGlo, 6 h",
    "assigned.category": 1
  },
  {
    "compound": "CC(C)(C)c1ccc(OCC(=O)N2CCN(c3ncccn3)CC2)cc1",
    "tested.system": "S. pyogenes SKKanGAS, kanamycin survival, BacTiterGlo, 6 h",
    "assigned.category": 0
  },
  {
    "compound": "CCN(CC(=O)NCC1CCCO1)S(=O)(=O)c1ccc(Cl)cc1 (stereo unspecified)",
    "tested.system": "S. pyogenes SKKanGAS, kanamycin survival, BacTiterGlo, 6 h",
    "assigned.category": 0
  }
]

So what was the verdict on CC1CCCN(S(=O)(=O)c2ccc(C(=O)Nc3nnc(C4=COCCO4)o3)cc2)C1 (stereo unspecified) in this test? 1

In this assay, the call recorded for Cc1[nH]c2ccccc2c1/C=N/Nc1nc2ccccc2[nH]1 was what? 1

Record lookup: outcome of this test for O=C(N/N=C/c1c(O)n(C2CCCCC2)c(=S)[nH]c1=O)c1ccccc1 ? 1

# outcome recorded in this test, key = C/C(=N\NC(=S)NCCc1ccccc1)c1ccc(Cl)cc1Cl 1

What is the recorded call for this compound in the test? COCc1cc(Sc2c(Cl)cccc2Cl)nc(-c2ccccc2)n1 1

Short answer needed: outcome of this test for CC1CCc2c(sc3nc(C4CC4)nc(N4CCN(C(=O)c5ccco5)CC4)c23)C1 (stereo unspecified) ? 1

Lab log entry: Oc1cccc(-c2nc3ccc4ccccc4c3c3c2CCC3)c1 — outcome as called in the assay? 1
